The entries below come with measured GI50 values attached.
- Test system: SNB-75
- Assay text: NCI tumour cell line growth inhibition, 48 h
The source made the active and inactive calls. Cut-off read from the data, not from the text of the source: active = GI50 up to about 1.1 µM and inactive = higher.

Qu. Report GI50 for "CCCCCCCCCCCCCCCCc1c(O)nc(NN)nc1C(=O)OC" tested on SNB-75.
Ans. > 50 µM (inactive)

----------
- Test system: BT-549
- Assay text: NCI tumour cell line growth inhibition, 48 h
Active and inactive are the calls of the source. No stated cut-off is given here; in the data, active = GI50 up to about 1.1 µM and inactive = higher.
The entries below come with measured GI50 values attached.

molecule=O=C(/C=C1\Nc2ncccc2N=C1CC(=O)c1ccccc1)c1ccccc1 reported_metric=GI50 reading="2.71 µM (inactive)"
molecule="CN(C)c1ccc(C2C(Cl)C(=O)N2NC(=O)c2c(Cl)c(Cl)c(Cl)c(Cl)c2-c2nc3ccccc3[nH]2)cc1 (stereo unspecified)" reported_metric=GI50 reading="13.6 µM (inactive)"
molecule=CC(=O)c1cccc(Nc2nc3ccccc3c3occc23)c1 reported_metric=GI50 reading="15.2 µM (inactive)"
molecule=CN(/N=C/c1ccc(Cl)cc1)C1=NCCCCN1 reported_metric=GI50 reading="> 100 µM (inactive)"
molecule=O=c1c2cc(-c3ccccc3)cnc2sn1-c1ccc(Br)cc1 reported_metric=GI50 reading="> 100 µM (inactive)"
molecule="COc1ccc(N2C(=O)C3c4[nH]c5ccc(C)cc5c4C4CCC(C(C)(C)C)CC4C3C2=O)cc1 (stereo unspecified)" reported_metric=GI50 reading="20.7 µM (inactive)"
molecule="O=C1CC2(CCC(O)(c3ccc(Cl)cc3)C(C(=O)c3ccc(Cl)cc3)C2)C(=O)c2ccccc2N1 (stereo unspecified)" reported_metric=GI50 reading="19.7 µM (inactive)"
molecule=CCCCOc1ccc2c(c1)CC[C@@H]1[C@@H]2CC[C@]2(C)C(=O)N(CCCC)C(=O)C[C@@H]12 reported_metric=GI50 reading="87.9 µM (inactive)"

Qu. Look at this molecule and give its reported GI50. "Cc1ccc(Nc2nc(=O)c3c4ccccc4n(C(=O)OC(C)(C)C)c3s2)cc1"
Ans. 26.6 µM (inactive)

Qu. Next molecule: "Cc1c/c(=N/NC(=O)c2ccncc2)n2nc(N)sc2n1"
Ans. > 100 µM (inactive)

Qu. Next molecule: "CCCCN(CCCC)C1(c2cc3ccccc3s2)CCCCC1.[O-][Cl+3]([O-])([O-])O"
Ans. 19.9 µM (inactive)

Qu. Next molecule: "O=[N+]([O-])c1nccn1CCCNc1c2ccccc2[n+]([O-])c2ccccc12"
Ans. > 100 µM (inactive)

Qu. Next molecule: "O=C1c2cc3c(cc2CC12Cc1cc4c(cc1C2=O)CCCC4)CCCC3"
Ans. 56.4 µM (inactive)

Qu. Next molecule: CC(=O)OCC(OC(C)=O)C(OC(C)=O)C(OC(C)=O)C(C=NN(C(C)=O)S(=O)(=O)c1ccc(/C=C2\NC(=O)N(C)C2=O)cc1)OC(C)=O (stereo unspecified)
Ans. 33.9 µM (inactive)

Hello, the source for this data is ChEMBL document CHEMBL1201862, in case you need it.
